Origin of measurements: the supplement of paper PMC10307832

Task for the reader: assign each of the following molecules its reported relative viability.
- Tested on: PC-3 [JPC-3]
- ASSAY_COMMENT: relative viability (nuclei count vs DMSO), 5 days (fraction); higher = more cells survive
- RUN_CONDITIONS: first compound 0.1 µM
Numbers only.

Hey, can you go through the list below and give me relative viability for every item?
1. NC(=O)Nc1cc(-c2cccc(F)c2)sc1C(=O)N[C@H]1CCCNC1 [AZD7762] + COc1cc2c(Oc3ccc(NC(=O)C4(C(=O)Nc5ccc(F)cc5)CC4)cc3F)ccnc2cc1OCCCN1CCOCC1 [Foretinib] (partner 0.25 µM)
2. NC(=O)Nc1cc(-c2cccc(F)c2)sc1C(=O)N[C@H]1CCCNC1 [AZD7762] + CC(=O)c1c(C)c2cnc(Nc3ccc(N4CCNCC4)cn3)nc2n(C2CCCC2)c1=O [Palbociclib] (partner 0.5 µM)

Reply:
1: 1.04; 2: 0.537

Hey, can you go through the list below and give me relative viability for every item?
1. NC(=O)Nc1cc(-c2cccc(F)c2)sc1C(=O)N[C@H]1CCCNC1 [AZD7762] + C[C@@H](Oc1cc(-c2cnn(C3CCNCC3)c2)cnc1N)c1c(Cl)ccc(F)c1Cl [Crizotinib] (partner 1 µM)
2. NC(=O)Nc1cc(-c2cccc(F)c2)sc1C(=O)N[C@H]1CCCNC1 [AZD7762] + C[C@]1(O)C[C@@H](c2nc(-c3ccc4ccc(-c5ccccc5)nc4c3)c3c(N)nccn32)C1 [Linsitinib] (partner 1 µM)

Reply:
1: 1.01; 2: 0.999

Hey, can you go through the list below and give me relative viability for every item?
1. NC(=O)Nc1cc(-c2cccc(F)c2)sc1C(=O)N[C@H]1CCCNC1 [AZD7762] + Cc1cc(Nc2cc(N3CCN(C)CC3)nc(Sc3ccc(NC(=O)C4CC4)cc3)n2)n[nH]1 [Tozasertib] (partner 0.1 µM)
2. NC(=O)Nc1cc(-c2cccc(F)c2)sc1C(=O)N[C@H]1CCCNC1 [AZD7762] + Cc1nc(NC(=O)N2CCC[C@H]2C(N)=O)sc1-c1ccnc(C(C)(C)C(F)(F)F)c1 [Alpelisib] (partner 2 µM)
3. NC(=O)Nc1cc(-c2cccc(F)c2)sc1C(=O)N[C@H]1CCCNC1 [AZD7762] + Nc1ncn([C@H]2C[C@H](O)[C@@H](CO)O2)c(=O)n1 [Decitabine] (partner 2 µM)
4. NC(=O)Nc1cc(-c2cccc(F)c2)sc1C(=O)N[C@H]1CCCNC1 [AZD7762] + CC1(C)CCC(c2ccc(Cl)cc2)=C(CN2CCN(c3ccc(C(=O)NS(=O)(=O)c4ccc(N[C@H](CCN5CCOCC5)CSc5ccccc5)c(S(=O)(=O)C(F)(F)F)c4)cc3)CC2)C1 [Navitoclax] (partner 0.5 µM)
5. NC(=O)Nc1cc(-c2cccc(F)c2)sc1C(=O)N[C@H]1CCCNC1 [AZD7762] + CC(=O)Nc1cccc(-n2c(=O)n(C3CC3)c(=O)c3c(Nc4ccc(I)cc4F)n(C)c(=O)c(C)c32)c1 [Trametinib] (partner 0.02 µM)

Reply:
1. 0.836
2. 1.05
3. 0.949
4. 0.802
5. 0.69

* * *

- System: NCI-H1648
- ASSAY_COMMENT: relative viability (nuclei count vs DMSO), 5 days (fraction); higher = more cells survive
- RUN_CONDITIONS: first compound 0.01581 µM
OUTCOME_MEASURE: relative viability
Numbers only.

CC1(C)CCC(c2ccc(Cl)cc2)=C(CN2CCN(c3ccc(C(=O)NS(=O)(=O)c4ccc(N[C@H](CCN5CCOCC5)CSc5ccccc5)c(S(=O)(=O)C(F)(F)F)c4)cc3)CC2)C1 [Navitoclax] + CC(=O)Nc1cccc(-n2c(=O)n(C3CC3)c(=O)c3c(Nc4ccc(I)cc4F)n(C)c(=O)c(C)c32)c1 [Trametinib] (partner 0.02 µM); 0.427
CC1(C)CCC(c2ccc(Cl)cc2)=C(CN2CCN(c3ccc(C(=O)NS(=O)(=O)c4ccc(N[C@H](CCN5CCOCC5)CSc5ccccc5)c(S(=O)(=O)C(F)(F)F)c4)cc3)CC2)C1 [Navitoclax] + O=C(CCCCCCC(=O)Nc1ccccc1)NO [Vorinostat] (partner 1 µM); 0.471
CC1(C)CCC(c2ccc(Cl)cc2)=C(CN2CCN(c3ccc(C(=O)NS(=O)(=O)c4ccc(N[C@H](CCN5CCOCC5)CSc5ccccc5)c(S(=O)(=O)C(F)(F)F)c4)cc3)CC2)C1 [Navitoclax] + NC(=O)Nc1cc(-c2cccc(F)c2)sc1C(=O)N[C@H]1CCCNC1 [AZD7762] (partner 0.2 µM); 0.669
CC1(C)CCC(c2ccc(Cl)cc2)=C(CN2CCN(c3ccc(C(=O)NS(=O)(=O)c4ccc(N[C@H](CCN5CCOCC5)CSc5ccccc5)c(S(=O)(=O)C(F)(F)F)c4)cc3)CC2)C1 [Navitoclax] + COc1cccc2cc(-c3nc([C@H]4CC[C@H](C(=O)O)CC4)n4ncnc(N)c34)[nH]c12 [OSI-027] (partner 0.5 µM); 0.256
CC1(C)CCC(c2ccc(Cl)cc2)=C(CN2CCN(c3ccc(C(=O)NS(=O)(=O)c4ccc(N[C@H](CCN5CCOCC5)CSc5ccccc5)c(S(=O)(=O)C(F)(F)F)c4)cc3)CC2)C1 [Navitoclax] + Nc1ncn([C@H]2C[C@H](O)[C@@H](CO)O2)c(=O)n1 [Decitabine] (partner 2 µM); 0.511

Now examine the next entry.
Query: Please report relative viability for the following compound: CC1(C)CCC(c2ccc(Cl)cc2)=C(CN2CCN(c3ccc(C(=O)NS(=O)(=O)c4ccc(N[C@H](CCN5CCOCC5)CSc5ccccc5)c(S(=O)(=O)C(F)(F)F)c4)cc3)CC2)C1 [Navitoclax] + Cc1cc(Nc2cc(N3CCN(C)CC3)nc(Sc3ccc(NC(=O)C4CC4)cc3)n2)n[nH]1 [Tozasertib] (partner 0.1 µM)
Reply: 0.506

* * *

- Tested on: HARA
- ASSAY_COMMENT: relative viability (nuclei count vs DMSO), 5 days (fraction); higher = more cells survive
- RUN_CONDITIONS: first compound 0.01581 µM
Task for the reader: assign each of the following compounds its reported relative viability.
Numbers only.

// below: answered compounds
CC1(C)CCC(c2ccc(Cl)cc2)=C(CN2CCN(c3ccc(C(=O)NS(=O)(=O)c4ccc(N[C@H](CCN5CCOCC5)CSc5ccccc5)c(S(=O)(=O)C(F)(F)F)c4)cc3)CC2)C1 [Navitoclax] + Cc1nc(NC(=O)N2CCC[C@H]2C(N)=O)sc1-c1ccnc(C(C)(C)C(F)(F)F)c1 [Alpelisib] (partner 2 µM); 1.05
CC1(C)CCC(c2ccc(Cl)cc2)=C(CN2CCN(c3ccc(C(=O)NS(=O)(=O)c4ccc(N[C@H](CCN5CCOCC5)CSc5ccccc5)c(S(=O)(=O)C(F)(F)F)c4)cc3)CC2)C1 [Navitoclax] + CS(=O)(=O)CCNCc1ccc(-c2ccc3ncnc(Nc4ccc(OCc5cccc(F)c5)c(Cl)c4)c3c2)o1 [Lapatinib] (partner 2 µM); 1
CC1(C)CCC(c2ccc(Cl)cc2)=C(CN2CCN(c3ccc(C(=O)NS(=O)(=O)c4ccc(N[C@H](CCN5CCOCC5)CSc5ccccc5)c(S(=O)(=O)C(F)(F)F)c4)cc3)CC2)C1 [Navitoclax] + Cc1nc(Nc2ncc(C(=O)Nc3c(C)cccc3Cl)s2)cc(N2CCN(CCO)CC2)n1 [Dasatinib] (partner 0.075 µM); 0.277

Now examine the next entry.
Query: Please report relative viability for the following compound: CC1(C)CCC(c2ccc(Cl)cc2)=C(CN2CCN(c3ccc(C(=O)NS(=O)(=O)c4ccc(N[C@H](CCN5CCOCC5)CSc5ccccc5)c(S(=O)(=O)C(F)(F)F)c4)cc3)CC2)C1 [Navitoclax] + C[C@]1(O)C[C@@H](c2nc(-c3ccc4ccc(-c5ccccc5)nc4c3)c3c(N)nccn32)C1 [Linsitinib] (partner 1 µM)
Reply: 1.16

* * *

Task for the reader: assign each of the following compounds its reported relative viability.
- System: NCI-H2085
- ASSAY_COMMENT: relative viability (nuclei count vs DMSO), 5 days (fraction); higher = more cells survive
- RUN_CONDITIONS: first compound 0.3162 µM

Hey, can you go through the list below and give me relative viability for every item?
1. NC(=O)Nc1cc(-c2cccc(F)c2)sc1C(=O)N[C@H]1CCCNC1 [AZD7762] + O=C(c1cc(Cc2n[nH]c(=O)c3ccccc23)ccc1F)N1CCN(C(=O)C2CC2)CC1 [Olaparib] (partner 8 µM)
2. NC(=O)Nc1cc(-c2cccc(F)c2)sc1C(=O)N[C@H]1CCCNC1 [AZD7762] + COc1cccc2cc(-c3nc([C@H]4CC[C@H](C(=O)O)CC4)n4ncnc(N)c34)[nH]c12 [OSI-027] (partner 0.5 µM)
3. NC(=O)Nc1cc(-c2cccc(F)c2)sc1C(=O)N[C@H]1CCCNC1 [AZD7762] + COc1cc2c(Oc3ccc(NC(=O)C4(C(=O)Nc5ccc(F)cc5)CC4)cc3F)ccnc2cc1OCCCN1CCOCC1 [Foretinib] (partner 0.25 µM)
4. NC(=O)Nc1cc(-c2cccc(F)c2)sc1C(=O)N[C@H]1CCCNC1 [AZD7762] + C[C@@H](Oc1cc(-c2cnn(C3CCNCC3)c2)cnc1N)c1c(Cl)ccc(F)c1Cl [Crizotinib] (partner 1 µM)
5. NC(=O)Nc1cc(-c2cccc(F)c2)sc1C(=O)N[C@H]1CCCNC1 [AZD7762] + Nc1ncn([C@H]2C[C@H](O)[C@@H](CO)O2)c(=O)n1 [Decitabine] (partner 2 µM)

Reply:
1: 0.88; 2: 0.765; 3: 1.21; 4: 0.853; 5: 0.743
